Task for the reader: assign each of the following compounds its reported inhibition at 20 µM.
Molecular target: his-galectin-3 (Homo sapiens, UniProt P17931)
Construct: purchased Abcam
Sequence (P17931 whole entry): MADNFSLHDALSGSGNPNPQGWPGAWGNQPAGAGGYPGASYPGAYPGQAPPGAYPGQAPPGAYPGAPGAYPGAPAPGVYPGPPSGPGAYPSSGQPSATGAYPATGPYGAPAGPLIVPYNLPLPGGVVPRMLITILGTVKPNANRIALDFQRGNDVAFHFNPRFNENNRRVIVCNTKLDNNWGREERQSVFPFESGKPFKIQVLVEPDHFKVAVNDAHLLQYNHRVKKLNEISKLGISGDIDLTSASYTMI
Test: TR-FRET assay (in vitro galectin-3 binding inhibitory activity test)
Conditions: read-out: % Inhibitory activity (at 20 μM), Table 2; compound at 20 μM; 60 nM his-galectin-3, 15 nM biotin-ASF

Request: Tell me reported inhibition at 20 µM for `OC[C@H]1O[C@]2(OCC[C@H]2n2cc(-c3ccccc3Cl)nn2)[C@H](O)[C@@H](n2cc(-c3cc(F)c(F)c(F)c3)nn2)[C@H]1O` , tested with his-galectin-3 (Homo sapiens, UniProt P17931).
Result: < 25%

Request: Item: `OC[C@H]1O[C@]2(OCC[C@H]2n2cc(-c3cccc(Cl)c3)nn2)[C@H](O)[C@@H](n2cc(-c3cc(F)c(F)c(F)c3)nn2)[C@H]1O` Test system: his-galectin-3 (Homo sapiens, UniProt P17931) Read-out: inhibition at 20 µM Value: ?
Result: < 25%

Request: API: value(readout= inhibition at 20 µM, system= his-galectin-3 (Homo sapiens, UniProt P17931), query= `OC[C@H]1O[C@@]2(CCCN(c3ccncn3)C2)[C@H](O)[C@@H](n2cc(-c3cc(F)c(F)c(F)c3)nn2)[C@H]1O` )
Result: < 25%

Request: Short answer please: inhibition at 20 µM, his-galectin-3 (Homo sapiens, UniProt P17931), entry `O=C(N[C@@H]1CCO[C@]12O[C@H](CO)[C@H](O)[C@H](n1cc(-c3cc(F)c(F)c(F)c3)nn1)[C@H]2O)c1ccccc1Oc1ccccc1`
Result: 25 to 50%

Request: Form field: inhibition at 20 µM recorded for `COc1cccc(CN[C@@H]2CCO[C@]23O[C@H](CO)[C@H](O)[C@H](n2cc(-c4cc(F)c(F)c(F)c4)nn2)[C@H]3O)c1` with his-galectin-3 (Homo sapiens, UniProt P17931) (enter value)
Result: < 25%

Request: Request - read-out inhibition at 20 µM | tested on his-galectin-3 (Homo sapiens, UniProt P17931) | compound `O=C(Cc1ccccc1)N1CCC[C@]2(C1)O[C@H](CO)[C@H](O)[C@H](n1cc(-c3cc(F)c(F)c(F)c3)nn1)[C@H]2O`
Result: < 25%

Request: # query: inhibition at 20 µM | item `OC[C@H]1O[C@]2(OCC[C@H]2n2cc(-c3ccccc3)nn2)[C@H](O)[C@@H](n2cc(-c3cc(F)c(F)c(F)c3)nn2)[C@H]1O` | system: his-galectin-3 (Homo sapiens, UniProt P17931)
Result: 25 to 50%

----------
Record form. Attribute: inhibition at 20 µM. Fill in for each entry.
Molecular target: his-galectin-3 (Homo sapiens, UniProt P17931)
Construct: purchased Abcam
Experiment: TR-FRET assay (in vitro galectin-3 binding inhibitory activity test)
Conditions: Table 1; compound at 20 μM; 60 nM his-galectin-3, 15 nM biotin-ASF; read-out: % Inhibitory activity (at 20 μM)

Request: Requested field: inhibition at 20 µM. Item: `OC[C@H]1O[C@]2(OCC[C@H]2NCc2ccc(Cl)o2)[C@H](O)[C@@H](n2cc(-c3cc(F)c(F)c(F)c3)nn2)[C@H]1O`
Result: 50 to 75%

Request: Please report the recorded inhibition at 20 µM for `OC[C@H]1O[C@]2(OCC[C@H]2NCc2ccccn2)[C@H](O)[C@@H](n2cc(-c3cc(F)c(F)c(F)c3)nn2)[C@H]1O` .
Result: < 25%

Request: Name the recorded inhibition at 20 µM for `OC[C@H]1O[C@]2(CCCO2)[C@H](O)[C@@H](n2cc(-c3cc(F)c(F)c(F)c3)nn2)[C@H]1O` .
Result: 25 to 50%

Request: Looking for the measured inhibition at 20 µM of `O=C(CO[C@@H]1[C@@H](n2cc(-c3cc(F)c(F)c(F)c3)nn2)[C@@H](O)[C@@H](CO)O[C@@]12CCCO2)Nc1ccccc1` , can you help?
Result: 25 to 50%

Request: GET /values?readout=inhibition at 20 µM&item= `O=P(O)(O)O[C@@H]1[C@@H](n2cc(-c3cc(F)c(F)c(F)c3)nn2)[C@@H](O)[C@@H](CO)O[C@@]12CCCCO2`
Result: 50 to 75%

Request: State the recorded inhibition at 20 µM for this entry: `OC[C@H]1O[C@]2(OCC[C@H]2NCc2cccc(Cl)c2O)[C@H](O)[C@@H](n2cc(-c3cc(F)c(F)c(F)c3)nn2)[C@H]1O`
Result: 50 to 75%

Request: Could you tell me which inhibition at 20 µM is on file for `O=C(O)CO[C@@H]1[C@@H](n2cc(-c3cc(F)c(F)c(F)c3)nn2)[C@@H](O)[C@@H](CO)O[C@@]12CCCO2` ?
Result: 50 to 75%

Request: GET /values?readout=inhibition at 20 µM&item= `O=C(N[C@@H]1CCO[C@]12O[C@H](CO)[C@H](O)[C@H](n1cc(-c3cc(F)c(F)c(F)c3)nn1)[C@H]2O)C(F)(F)c1ccccc1`
Result: < 25%

Request: Can you share its inhibition at 20 µM? I mean this molecule: `OC[C@H]1O[C@@]2(CCCO2)[C@H](OCc2ccccn2)[C@@H](n2cc(-c3cc(F)c(F)c(F)c3)nn2)[C@H]1O`
Result: 25 to 50%

Request: What value of inhibition at 20 µM has been reported for the following molecule? `OC[C@H]1OC2(CCCC2)[C@H](O)[C@@H](n2cc(-c3cc(F)c(F)c(F)c3)nn2)[C@H]1O`
Result: 25 to 50%

Request: Return reported inhibition at 20 µM; argument: `OC[C@H]1O[C@]2(OCC[C@H]2NCc2cccc(Cl)c2)[C@H](O)[C@@H](n2cc(-c3cc(F)c(F)c(F)c3)nn2)[C@H]1O`
Result: > 75%

Request: Param item = `N[C@@H]1CCO[C@]12O[C@H](CO)[C@H](O)[C@H](n1cc(-c3cc(F)c(F)c(F)c3)nn1)[C@H]2O` ; retrieve measured inhibition at 20 µM.
Result: < 25%

Request: # query: inhibition at 20 µM of entry `O=C(N[C@@H]1CCO[C@]12O[C@H](CO)[C@H](O)[C@H](n1cc(-c3cc(F)c(F)c(F)c3)nn1)[C@H]2O)c1ccc(-c2ccccc2)cc1`
Result: < 25%

----------
Molecular target: his-galectin-3 (Homo sapiens, UniProt P17931)
Construct: purchased Abcam
Assay: TR-FRET assay (in vitro galectin-3 binding inhibitory activity test)
Conditions: Table 3, found values; compound at 20 μM; 60 nM his-galectin-3, 15 nM biotin-ASF; read-out: % Inhibitory activity (at 20 μM)
Give inhibition at 20 µM for every item shown.
Answer by giving the amount and then stating its unit.

Request: Which inhibition at 20 µM value belongs to `O=C(CO[C@@H]1[C@@H](n2cc(-c3cc(F)c(F)c(F)c3)nn2)[C@@H](O)[C@@H](CO)O[C@@]12CCCO2)N1CCC(O)CC1` ?
Result: 28.1%

Request: I have this molecule here, `O=C(N[C@@H]1CCO[C@]12O[C@H](CO)[C@H](O)[C@H](n1cc(-c3cc(F)c(F)c(F)c3)nn1)[C@H]2O)c1cccc(Oc2ccccc2)c1` , and I need its recorded inhibition at 20 µM.
Result: 56.6%

Request: Give the measured inhibition at 20 µM of `O=C(N[C@@H]1CCO[C@]12O[C@H](CO)[C@H](O)[C@H](n1cc(-c3cc(F)c(F)c(F)c3)nn1)[C@H]2O)c1cnc2sccn12` .
Result: 63.3%

Request: Could you share which inhibition at 20 µM value was measured for `O=C(N[C@@H]1CCO[C@]12O[C@H](CO)[C@H](O)[C@H](n1cc(-c3cc(F)c(F)c(F)c3)nn1)[C@H]2OCc1nn[nH]n1)c1ccc(F)c2ccccc12` ?
Result: 90.6%

Request: I'd like to know its inhibition at 20 µM. The molecule in question is `OC[C@H]1O[C@@]2(CCCCO2)[C@H](OCc2cccc(F)c2)[C@@H](n2cc(-c3cc(F)c(F)c(F)c3)nn2)[C@H]1O`
Result: 43.7%

Request: What measured inhibition at 20 µM goes with `Cc1ccc2ccccc2c1C(=O)N[C@@H]1CCO[C@]12O[C@H](CO)[C@H](O)[C@H](n1cc(-c3cc(F)c(F)c(F)c3)nn1)[C@H]2O` ?
Result: 72.1%

----------
For each record, write down the corresponding inhibition at 20 µM.
Target: his-galectin-3 (Homo sapiens)
Construct: purchased Abcam
Experiment: TR-FRET assay (in vitro galectin-3 binding inhibitory activity test)
Conditions: Table 1; compound at 20 μM; 60 nM his-galectin-3, 15 nM biotin-ASF; read-out: % Inhibitory activity (at 20 μM)

Request: Return reported inhibition at 20 µM; argument: `OC[C@H]1O[C@]2(OCC[C@H]2NCc2ccccc2O)[C@H](O)[C@@H](n2cc(-c3cc(F)c(F)c(F)c3)nn2)[C@H]1O`
Result: < 25%

Request: Query: inhibition at 20 µM; subject: `O=C(N[C@@H]1CCO[C@]12O[C@H](CO)[C@H](O)[C@H](n1cc(-c3cc(F)c(F)c(F)c3)nn1)[C@H]2O)c1cccc(-c2ccccc2)c1`
Result: > 75%

Request: // returns reported inhibition at 20 µM for input `OC[C@H]1O[C@]2(OCC[C@H]2NCc2cccc(F)c2)[C@H](O)[C@@H](n2cc(-c3cc(F)c(F)c(F)c3)nn2)[C@H]1O`
Result: 50 to 75%

// data source = patent US20250026778A1
